# experimental.system: epithelial sodium channel (ENaC) (Homo sapiens, UniProt P37088+P51168+P51170)
# Sequence (P37088 whole entry): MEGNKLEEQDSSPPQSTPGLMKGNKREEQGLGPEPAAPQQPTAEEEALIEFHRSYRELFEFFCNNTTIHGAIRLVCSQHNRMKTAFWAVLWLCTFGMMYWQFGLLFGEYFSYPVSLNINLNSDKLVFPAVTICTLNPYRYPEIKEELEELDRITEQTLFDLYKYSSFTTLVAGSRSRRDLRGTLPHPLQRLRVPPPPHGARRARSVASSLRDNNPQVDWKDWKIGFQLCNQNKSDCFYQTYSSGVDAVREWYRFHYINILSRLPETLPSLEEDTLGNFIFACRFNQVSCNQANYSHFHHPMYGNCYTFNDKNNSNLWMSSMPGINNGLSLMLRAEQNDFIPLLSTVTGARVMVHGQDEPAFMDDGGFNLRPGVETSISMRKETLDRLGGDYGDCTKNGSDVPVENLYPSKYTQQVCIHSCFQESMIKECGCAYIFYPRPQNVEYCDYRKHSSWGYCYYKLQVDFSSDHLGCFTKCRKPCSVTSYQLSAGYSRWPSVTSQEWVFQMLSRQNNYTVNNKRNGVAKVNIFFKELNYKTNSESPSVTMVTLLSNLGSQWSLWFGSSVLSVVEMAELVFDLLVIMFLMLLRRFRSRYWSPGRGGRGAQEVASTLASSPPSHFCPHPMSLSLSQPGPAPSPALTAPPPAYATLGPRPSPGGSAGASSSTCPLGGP
# Sequence (P51168 whole entry): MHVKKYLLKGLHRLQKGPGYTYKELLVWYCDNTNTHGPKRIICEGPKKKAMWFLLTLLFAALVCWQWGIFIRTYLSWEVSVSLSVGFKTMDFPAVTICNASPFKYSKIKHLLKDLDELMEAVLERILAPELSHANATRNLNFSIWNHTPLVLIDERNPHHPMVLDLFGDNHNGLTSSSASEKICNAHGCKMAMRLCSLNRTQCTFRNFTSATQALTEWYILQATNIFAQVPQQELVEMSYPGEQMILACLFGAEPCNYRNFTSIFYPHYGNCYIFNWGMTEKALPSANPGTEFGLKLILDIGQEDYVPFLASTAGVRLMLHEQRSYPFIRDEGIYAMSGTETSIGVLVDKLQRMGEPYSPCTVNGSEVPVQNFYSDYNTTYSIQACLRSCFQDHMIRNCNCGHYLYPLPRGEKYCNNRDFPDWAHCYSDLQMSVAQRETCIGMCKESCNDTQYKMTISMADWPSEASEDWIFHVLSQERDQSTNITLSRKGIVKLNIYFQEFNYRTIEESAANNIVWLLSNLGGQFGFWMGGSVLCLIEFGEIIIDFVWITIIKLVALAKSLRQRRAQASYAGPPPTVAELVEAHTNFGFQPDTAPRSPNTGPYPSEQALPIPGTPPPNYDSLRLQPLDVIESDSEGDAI
# Sequence (P51170 whole entry): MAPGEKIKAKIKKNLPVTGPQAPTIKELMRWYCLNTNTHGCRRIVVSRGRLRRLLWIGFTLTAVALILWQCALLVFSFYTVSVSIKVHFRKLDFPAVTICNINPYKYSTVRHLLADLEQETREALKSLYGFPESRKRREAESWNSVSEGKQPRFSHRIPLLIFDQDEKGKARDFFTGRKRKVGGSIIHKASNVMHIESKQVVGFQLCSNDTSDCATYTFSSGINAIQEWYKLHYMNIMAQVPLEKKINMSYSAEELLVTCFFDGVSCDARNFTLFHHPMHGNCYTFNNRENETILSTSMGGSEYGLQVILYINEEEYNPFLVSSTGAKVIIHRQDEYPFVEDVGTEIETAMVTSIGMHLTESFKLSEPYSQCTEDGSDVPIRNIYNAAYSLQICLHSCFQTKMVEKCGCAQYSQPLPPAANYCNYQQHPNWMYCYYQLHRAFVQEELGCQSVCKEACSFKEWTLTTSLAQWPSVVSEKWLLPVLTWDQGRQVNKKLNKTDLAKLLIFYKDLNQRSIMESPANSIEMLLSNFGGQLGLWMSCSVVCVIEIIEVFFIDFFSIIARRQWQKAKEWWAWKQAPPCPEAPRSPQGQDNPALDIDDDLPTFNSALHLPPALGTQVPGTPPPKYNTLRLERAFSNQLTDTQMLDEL
# method: Short circuit current (ISC) measurements in human bronchial epithelial cells: inhibition of the amiloride-sensitive ISC (ENaC blockade)
# reported.conditions: Human Bronchial Epithelial cells (HBECs) at air-liquid interface, Ussing chamber, compound added to apical chamber
Counter-ions that a name gives are not always drawn.
In plain terms, low IC50, meaning strictly below 6 nM, gives YES, and everything else gives NO.

Look over these answered cases.
| compound | group.label |
| --- | --- |
| N=C(NC(=O)c1nc(Cl)c(N)nc1N)NC1CCN(C(=O)Nc2ccc(NC(=O)N3CCC(NC(=N)NC(=O)c4nc(Cl)c(N)nc4N)CC3)cc2)CC1 [Example 2] | YES |
| CCCCN(CCCC)CCCNc1nc(N2CCC(NC(=N)NC(=O)c3nc(Cl)c(N)nc3N)CC2)nc(N2CCC(NC(=N)NC(=O)c3nc(Cl)c(N)nc3N)CC2)n1 [Example 13] | YES |
| N=C(NC(=O)c1nc(Cl)c(N)nc1N)NC1CCN(C(=O)c2ccc(C(=O)N3CCC(NC(=N)NC(=O)c4nc(Cl)c(N)nc4N)CC3)cc2)CC1 [Example 4] | NO |

Input line: Please determine if N/C(=N\C(=O)c1nc(Cl)c(N)nc1N)NC1CCN(C(=O)NCCCCNC(=O)N2CCC(N/C(N)=N/C(=O)c3nc(Cl)c(N)nc3N)CC2)CC1 [Example 23, hydrobromide] is below 6 nM in terms of IC50.
Output line: YES

Data provenance is patent US8318935B2.
